The entries below come with measured GI50 values attached.
Tested on: IGROV1 ovarian
Assay: NCI tumour cell line growth inhibition, 48 h
value kind: GI50

compound	subject of test	value reported
Clc1cccc(NC=Nc2ccc(-c3nc4ccccc4s3)cc2)c1	IGROV1 ovarian	11.3 µM
Cn1cc(C2=C(c3ccc(OC[C@@H](O)CO)cc3)C(=O)NC2=O)c2ccccc21	IGROV1 ovarian	> 25 µM
CCCCCCCCCCCCOC1C(CNCC2OC3OC(C)(C)OC3C2NC(=O)Nc2ccc(C(=O)OCC)cc2)OC2OC(C)(C)OC21 (stereo not given)	IGROV1 ovarian	2.7 µM
O=C(/C=C(\[O-])c1ccccc1)CCCCCCC(=O)/C=C(\[O-])c1ccccc1.O=C(/C=C(\[O-])c1ccccc1)CCCCCCC(=O)/C=C(\[O-])c1ccccc1.O=C(/C=C(\[O-])c1ccccc1)CCCCCCC(=O)/C=C(\[O-])c1ccccc1.[La+3].[La+3]	IGROV1 ovarian	> 50 µM
COc1cccc(-c2nn(-c3ccccc3)cc2-c2ccnc(NCCCNS(=O)(=O)c3cccc(F)c3)c2)c1	IGROV1 ovarian	4.96 µM
COc1ccccc1NC(=O)c1ccc(/C=C/C(=O)c2nccn2C)cc1	IGROV1 ovarian	0.523 µM
OC(c1cccc(C(F)(F)F)c1)c1cnccc1NC1CCCCCC1 (stereo not given)	IGROV1 ovarian	1.7 µM
Cc1c(N2C(=O)/C(=C\c3ccccc3O)N=C2c2ccccc2)c(=O)n(-c2ccccc2)n1C	IGROV1 ovarian	23.8 µM
CC[n+]1ccc2c(c1)C(=O)c1nccc3c1c-2nc1ccccc13	IGROV1 ovarian	1.76 µM
CCOC(=O)c1cc(-c2ccc([N+](=O)[O-])cc2)n(-c2ccc(C(=O)O)c(O)c2)c1C	IGROV1 ovarian	4.42 µM

* * *

Test system: SW-620 colon
Assay: NCI tumour cell line growth inhibition, 48 h; in the data active = GI50 below about 0.43 µM; inactive = the rest
Outcome codes: yes (active), no (inactive)

structure notation	subject of test	group label
COc1ccc(-n2cc(-c3ccc(OC)c(OC)c3)[nH]c2=S)cc1Cl	SW-620 colon	no
Cc1c(Cl)cccc1Nc1ncccc1C(=O)O	SW-620 colon	no
CN=C1NC(=O)/C(=C/c2ccc3ncccc3c2)S1	SW-620 colon	no
CC1=C(CCCOC(=O)NCCCl)C2=C(C)C3(CC3)[C@@](C)(O)C(=O)C2=C1	SW-620 colon	no
O=C1c2ccccc2C(=O)c2c1ccc1[nH]c(CCl)nc21	SW-620 colon	no
O=C(/C=C(\[O-])c1ccccc1)CCCCCCC(=O)/C=C(\[O-])c1ccccc1.O=C(/C=C(\[O-])c1ccccc1)CCCCCCC(=O)/C=C(\[O-])c1ccccc1.O=C(/C=C(\[O-])c1ccccc1)CCCCCCC(=O)/C=C(\[O-])c1ccccc1.[La+3].[La+3]	SW-620 colon	no
CCOC(=O)c1cc(-c2ccc([N+](=O)[O-])cc2)n(-c2ccc(C(=O)O)c(O)c2)c1C	SW-620 colon	no
N#Cc1nc(-c2ccc(F)cc2)oc1S(=O)(=O)N1CCOCC1	SW-620 colon	no
CNC(=O)c1cc(Oc2ccc3c(c2)sc2nc(-c4ccc(N)cc4)cn23)ccn1	SW-620 colon	yes

* * *

Test system: NCI-H522 lung
Assay: NCI tumour cell line growth inhibition, 48 h
value kind: GI50

structure notation	value reported
NS(=O)(=O)c1ccc(-n2nc(-c3ccc(Br)cc3)ccc2=O)cc1	2.09 µM
CC[n+]1ccc2c(c1)C(=O)c1nccc3c1c-2nc1ccccc13	0.538 µM
COc1ccc(N=Cc2cc(OC)c(OC)c(OC)c2)cc1	> 100 µM
Cn1cc(C2=C(c3ccc(OC[C@@H](O)CO)cc3)C(=O)NC2=O)c2ccccc21	> 25 µM
S=C1NCCN1C1=Nc2ccccc2CO1	> 100 µM
C[C@@H]1Cc2c([nH]c3ccccc23)[C@@H](c2c(F)cc(/C=C/C(=O)O)cc2F)N1CC(C)(C)F	14 µM
COc1nc2c(cc1S(=O)(=O)c1ccccc1)CCc1c-2cnn1-c1ccccc1Cl	3.02 µM
COc1ccc(-n2cc(-c3ccc(OC)c(OC)c3)[nH]c2=S)cc1Cl	> 100 µM
